tested on: Klebsiella pneumoniae X68; experiment: MIC, standard agar-dilution assay; assay type: cell-based
Test readout: MIC

>  <Molecule>
CCCCCCCCCCNC1(C)CC(OC2C(Oc3c4cc5cc3Oc3ccc(cc3Cl)C(O)C(NC(=O)C(CC(C)C)[N+](C)(C)C)C(=O)NC(CC(N)=O)C(=O)NC5C(=O)NC3C(=O)NC(C(=O)NC(C(=O)[O-])c5cc(O)cc(O)c5-c5cc3ccc5O)C(O)c3ccc(c(Cl)c3)O4)OC(CO)C(O)C2O)OC(C)C1O (centres unmarked) [Compound 124, N^van --(n-decyl)-M43A]

>  <MIC>
> 64 µg/mL

$$$$

Now for a further molecule.
Input line: Entry CCNC1(C)CC(OC2C(Oc3c4cc5cc3Oc3ccc(cc3Cl)C(O)C(NC(=O)C(CC(C)C)N(C)CC)C(=O)NC(CC(N)=O)C(=O)NC5C(=O)NC3C(=O)NC(C(=O)NC(C(=O)O)c5cc(O)cc(O)c5-c5cc3ccc5O)C(O)c3ccc(c(Cl)c3)O4)OC(CO)C(O)C2O)OC(C)C1O (centres unmarked) : reported MIC = ?
Output line: > 128 µg/mL

###

system: Haemophilus influenzae C.L.; experiment: MIC, standard agar-dilution assay; type: cell-based
Test readout: MIC

Guide cases for MIC, answers given:
>  <Molecule>
CCCCCCCCCNC1(C)CC(OC2C(Oc3c4cc5cc3Oc3ccc(cc3Cl)C(O)C(NC(=O)C(CC(C)C)N(C)CCCCCCCCC)C(=O)NC(CC(N)=O)C(=O)NC5C(=O)NC3C(=O)NC(C(=O)NC(C(=O)O)c5cc(O)cc(O)c5-c5cc3ccc5O)C(O)c3ccc(c(Cl)c3)O4)OC(CO)C(O)C2O)OC(C)C1O (stereo not drawn)

>  <Subject of test>
Haemophilus influenzae C.L.

>  <Value>
> 128 µg/mL

$$$$
>  <Molecule>
CCCCCCCCNC1(C)CC(OC2C(Oc3c4cc5cc3Oc3ccc(cc3Cl)C(O)C(NC(=O)C(CC(C)C)N(C)CCCCCCCC)C(=O)NC(CC(N)=O)C(=O)NC5C(=O)NC3C(=O)NC(C(=O)NC(C(=O)O)c5cc(O)cc(O)c5-c5cc3ccc5O)C(O)c3ccc(c(Cl)c3)O4)OC(CO)C(O)C2O)OC(C)C1O (stereo not drawn)

>  <Subject of test>
Haemophilus influenzae C.L.

>  <Value>
> 128 µg/mL

$$$$

Input line: GET /values?readout=MIC&item= CCCCCCCCc1ccc(CNC2(C)CC(OC3C(Oc4c5cc6cc4Oc4ccc(cc4Cl)C(O)C4NC(=O)C(NC(=O)C6NC(=O)C(CC(N)=O)NC(=O)C(NC(=O)C(CC(C)C)NC)C(O)c6ccc(c(Cl)c6)O5)c5ccc(O)c(c5)-c5c(O)cc(O)cc5C(C(=O)O)NC4=O)OC(CO)C(O)C3O)OC(C)C2O)cc1 (stereo not drawn)
Output line: > 128 µg/mL

###

tested on: Escherichia coli N10; test: MIC, standard agar-dilution assay; assay type: cell-based
Test readout: MIC

>  <Compound>
CCNC1(C)CC(OC2C(Oc3c4cc5cc3Oc3ccc(cc3Cl)C(O)C(NC(=O)C(CC(C)C)N(C)CC)C(=O)NC(CC(N)=O)C(=O)NC5C(=O)NC3C(=O)NC(C(=O)NC(C(=O)O)c5cc(O)cc(O)c5-c5cc3ccc5O)C(O)c3ccc(c(Cl)c3)O4)OC(CO)C(O)C2O)OC(C)C1O (stereo not drawn)

>  <Value>
> 128 µg/mL

$$$$
>  <Compound>
CCCCOc1ccc(CNC2(C)CC(OC3C(Oc4c5cc6cc4Oc4ccc(cc4Cl)C(O)C4NC(=O)C(NC(=O)C6NC(=O)C(CC(N)=O)NC(=O)C(NC(=O)C(CC(C)C)NC)C(O)c6ccc(c(Cl)c6)O5)c5ccc(O)c(c5)-c5c(O)cc(O)cc5C(C(=O)O)NC4=O)OC(CO)C(O)C3O)OC(C)C2O)cc1 (stereo not drawn)

>  <Value>
> 128 µg/mL

$$$$
>  <Compound>
CNC(CC(C)C)C(=O)NC1C(=O)NC(CC(N)=O)C(=O)NC2C(=O)NC3C(=O)NC(C(=O)NC(C(=O)O)c4cc(O)cc(O)c4-c4cc3ccc4O)C(O)c3ccc(c(Cl)c3)Oc3cc2cc(c3OC2OC(CO)C(O)C(O)C2OC2CC(C)(NCc3ccc(O)cc3)C(O)C(C)O2)Oc2ccc(cc2Cl)C1O (stereo not drawn) [Example 105, N^van --( -p-hydroxybenzyl)vancomycin]

>  <Value>
> 128 µg/mL

$$$$
>  <Compound>
CCCCCCCNC1(C)CC(OC2C(Oc3c4cc5cc3Oc3ccc(cc3Cl)C(O)C3NC(=O)C(NC(=O)C5NC(=O)C(CC(N)=O)NC(=O)C(NC(=O)C(CC(C)C)NC)C(O)c5ccc(c(Cl)c5)O4)c4ccc(O)c(c4)-c4c(O)cc(O)cc4C(C(=O)O)NC3=O)OC(CO)C(O)C2O)OC(C)C1O (stereo not drawn)

>  <Value>
> 128 µg/mL

$$$$
>  <Compound>
CCCCCCCCCCNC1(C)CC(OC2C(Oc3c4cc5cc3Oc3ccc(cc3Cl)C(O)C3NC(=O)C(NC(=O)C5NC(=O)C(CC(N)=O)NC(=O)C(NC(=O)C(N)CC(C)C)C(O)c5ccc(c(Cl)c5)O4)c4ccc(O)c(c4)-c4c(O)cc(O)cc4C(C(=O)O)NC3=O)OC(CO)C(O)C2O)OC(C)C1O (stereo not drawn) [Compound 26, N^van --(n-decyl)-A51568A]

>  <Value>
> 128 µg/mL

$$$$

Let us examine a further case.
Input line: Fill blank: measured MIC of the compound CCCCCCCCCNC1(C)CC(OC2C(Oc3c4cc5cc3Oc3ccc(cc3Cl)C(O)C3NC(=O)C(NC(=O)C5NC(=O)C(CC(N)=O)NC(=O)C(NC(=O)C(CC(C)C)NC)C(O)c5ccc(c(Cl)c5)O4)c4ccc(O)c(c4)-c4c(O)cc(O)cc4C(C(=O)O)NC3=O)OC(CO)C(O)C2O)OC(C)C1O (stereo not drawn) is ____.
Output line: > 128 µg/mL

# credit: patent US4698327A
